# assaySystem: rhBACE-1 β-Secretase recombinant human (Homo sapiens)
# Construct: purchased R&D Systems 931-AS
# Sequence (P56817 46-457 limits assumed): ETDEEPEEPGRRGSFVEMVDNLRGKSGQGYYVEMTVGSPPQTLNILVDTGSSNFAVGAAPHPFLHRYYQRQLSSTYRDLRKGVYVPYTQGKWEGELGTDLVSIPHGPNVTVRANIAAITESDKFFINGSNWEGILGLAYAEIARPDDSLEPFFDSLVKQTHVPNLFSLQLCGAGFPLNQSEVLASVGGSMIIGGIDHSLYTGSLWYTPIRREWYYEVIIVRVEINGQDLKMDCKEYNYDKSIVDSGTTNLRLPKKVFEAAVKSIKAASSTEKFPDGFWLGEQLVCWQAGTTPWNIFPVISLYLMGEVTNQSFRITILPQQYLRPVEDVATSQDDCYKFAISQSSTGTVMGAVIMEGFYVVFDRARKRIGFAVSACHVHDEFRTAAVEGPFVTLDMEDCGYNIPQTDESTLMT
# method: BACE assay (FRET, fluorogenic peptide substrate)
# Assay type: biochemical
# experimentalParameters: compound at 1 μM; percentage of the enzyme activity (remaining)
quantityName: % BACE Activity (%)

INSERT INTO measurements (itemsmiles, quantityname, quantitativeresult) VALUES
  ('COCOc1ccc(C=O)cc1C/C=C(\C)CCC=C(C)C', '% BACE Activity', 100),
  ('CC(=O)Oc1ccc(C(=O)O)cc1C/C=C(\C)CC/C=C(\C)CC/C=C(\C)CCC=C(C)C', '% BACE Activity', 87),
  ('CC(C)=CCC/C(C)=C/CC/C(C)=C/Cc1cc(C=O)ccc1OCc1ccccc1', '% BACE Activity', 99);
